Every entry's value here was drawn from patent US11021467B2.

target: PI3Kδ (Homo sapiens (Human), UniProt O00329); assay: TR-FRET enzymatic activity assay against PI3K isoforms; settings: 2×Km ATP, 30 minutes at 25° C.
Sequence (O00329 whole entry, one chain of several, canonical isoform): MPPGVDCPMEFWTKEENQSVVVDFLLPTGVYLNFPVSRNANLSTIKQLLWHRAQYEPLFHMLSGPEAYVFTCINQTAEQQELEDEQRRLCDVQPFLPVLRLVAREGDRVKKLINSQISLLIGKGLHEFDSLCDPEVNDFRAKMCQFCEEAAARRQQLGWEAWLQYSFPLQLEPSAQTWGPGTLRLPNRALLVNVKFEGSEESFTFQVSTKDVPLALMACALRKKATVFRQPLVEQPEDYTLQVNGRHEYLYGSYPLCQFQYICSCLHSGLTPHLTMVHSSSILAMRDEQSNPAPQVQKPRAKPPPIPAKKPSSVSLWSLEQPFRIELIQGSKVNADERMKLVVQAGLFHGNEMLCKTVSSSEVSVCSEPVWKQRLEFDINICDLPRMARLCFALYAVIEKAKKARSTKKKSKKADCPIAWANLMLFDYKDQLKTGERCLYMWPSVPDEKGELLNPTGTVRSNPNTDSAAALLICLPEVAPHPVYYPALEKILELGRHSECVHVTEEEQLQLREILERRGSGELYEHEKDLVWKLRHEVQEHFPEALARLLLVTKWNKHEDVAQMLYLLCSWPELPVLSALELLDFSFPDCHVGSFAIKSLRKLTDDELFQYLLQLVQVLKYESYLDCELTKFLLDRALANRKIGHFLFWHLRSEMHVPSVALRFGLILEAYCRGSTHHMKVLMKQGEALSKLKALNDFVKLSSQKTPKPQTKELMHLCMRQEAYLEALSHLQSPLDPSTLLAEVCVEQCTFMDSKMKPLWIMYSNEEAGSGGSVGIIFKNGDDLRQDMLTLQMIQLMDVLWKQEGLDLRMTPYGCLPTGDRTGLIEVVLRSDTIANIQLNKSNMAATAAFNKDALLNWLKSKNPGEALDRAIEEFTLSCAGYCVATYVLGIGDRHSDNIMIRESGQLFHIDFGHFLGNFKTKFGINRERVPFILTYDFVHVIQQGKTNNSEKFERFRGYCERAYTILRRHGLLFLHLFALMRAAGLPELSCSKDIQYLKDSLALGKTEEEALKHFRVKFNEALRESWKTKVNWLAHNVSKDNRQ
Rule: measured IC50 below 5 nM gets True; anything equal to or greater than 5 nM gets False.

compound: C[C@H](Nc1nc(N)nc(N)c1C#N)c1nc2cccc(Cl)c2c(=O)n1[C@H]1C[C@@H](O)C1 [Compound 93]
group label: True
//
compound: CCOCCn1c([C@H](C)Nc2nc(N)nc(N)c2C#N)nc2cccc(Cl)c2c1=O [Compound 130]
group label: True
//
compound: C[C@H](NC(=O)c1c(N)nn2cccnc12)c1nc2cccc(Cl)c2c(=O)n1CCCN [Compound 32]
group label: False
//
compound: N#Cc1c(N)nc(N)nc1N[C@@H](c1ccccc1)c1nc2cccc(Cl)c2c(=O)n1CCCN [Compound 1]
group label: False
//
compound: N#Cc1c(N)nc(N)nc1N[C@H](c1nc2cccc(Cl)c2c(=O)n1CCCNC1CCC1)C1CC1 [Compound 54]
group label: True
//
compound: CC(C)(C)C(=O)NCCCn1c([C@@H](Nc2nc(N)nc(N)c2C#N)C2CC2)nc2cccc(Cl)c2c1=O [Compound 52]
group label: True

* * *

molecular target: PI3Kβ (Homo sapiens (Human)); test: TR-FRET enzymatic activity assay against PI3K isoforms; conditions: PI3Kβ, TR-FRET, 2×Km ATP, 30 minutes at 25° C.
pIC50: −log10 of the molar value.

structure smiles string: N#Cc1c(N)nc(N)nc1N[C@H](c1nc2c(Cl)ccc(Cl)c2c(=O)n1[C@H]1C[C@H](O)C1)C1CC1
pIC50: 7.36
//
structure smiles string: N#Cc1c(N)nc(N)nc1N[C@H](c1nc2cccc(Cl)c2c(=O)n1CCCNC1CCC1)C1CC1
pIC50: 8.30
//
structure smiles string: C[C@H](Nc1ncnc2scnc12)c1nc2cccc(Cl)c2c(=O)n1CCC(C)(C)N
pIC50: 5.82
//
structure smiles string: COCCCn1c([C@H](C)Nc2ncnc(N)c2C#N)nc2c(F)ccc(F)c2c1=O
pIC50: 5.70

* * *

target: PI3Kβ (Homo sapiens (Human), UniProt P42338); test: TR-FRET enzymatic activity assay against PI3K isoforms; settings: PI3Kβ, TR-FRET, 2×Km ATP, 30 minutes at 25° C.
Sequence (P42338 whole entry, canonical isoform): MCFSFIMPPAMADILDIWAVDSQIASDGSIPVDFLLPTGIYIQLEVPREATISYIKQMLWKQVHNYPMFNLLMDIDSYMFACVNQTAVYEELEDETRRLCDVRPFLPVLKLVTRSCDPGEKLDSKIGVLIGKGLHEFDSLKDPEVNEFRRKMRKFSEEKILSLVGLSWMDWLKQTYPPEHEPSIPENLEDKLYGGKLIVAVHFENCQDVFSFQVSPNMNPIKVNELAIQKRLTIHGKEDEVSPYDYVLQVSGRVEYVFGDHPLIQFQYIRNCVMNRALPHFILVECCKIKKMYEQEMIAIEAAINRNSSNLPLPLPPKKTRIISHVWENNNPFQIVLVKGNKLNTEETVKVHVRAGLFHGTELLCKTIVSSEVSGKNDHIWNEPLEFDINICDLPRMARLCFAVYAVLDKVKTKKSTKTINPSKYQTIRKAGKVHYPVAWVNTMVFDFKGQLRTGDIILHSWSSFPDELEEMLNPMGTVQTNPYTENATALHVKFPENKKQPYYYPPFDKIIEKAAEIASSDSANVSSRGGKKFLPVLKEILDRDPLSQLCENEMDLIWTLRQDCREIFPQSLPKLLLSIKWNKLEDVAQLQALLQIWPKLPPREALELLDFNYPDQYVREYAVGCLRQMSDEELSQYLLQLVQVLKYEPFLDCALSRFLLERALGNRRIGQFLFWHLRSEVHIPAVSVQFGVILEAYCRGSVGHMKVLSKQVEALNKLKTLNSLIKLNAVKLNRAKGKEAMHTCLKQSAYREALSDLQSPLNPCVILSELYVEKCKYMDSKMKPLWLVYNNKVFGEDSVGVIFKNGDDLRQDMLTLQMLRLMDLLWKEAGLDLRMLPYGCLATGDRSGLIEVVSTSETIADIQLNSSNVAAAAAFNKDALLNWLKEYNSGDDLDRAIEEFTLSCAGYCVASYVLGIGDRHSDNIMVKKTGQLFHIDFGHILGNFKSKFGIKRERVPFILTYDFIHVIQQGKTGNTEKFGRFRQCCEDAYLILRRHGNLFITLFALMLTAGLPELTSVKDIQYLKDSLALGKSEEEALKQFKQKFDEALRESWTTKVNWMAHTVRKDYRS
Sequence (P27986 whole entry partner, canonical isoform): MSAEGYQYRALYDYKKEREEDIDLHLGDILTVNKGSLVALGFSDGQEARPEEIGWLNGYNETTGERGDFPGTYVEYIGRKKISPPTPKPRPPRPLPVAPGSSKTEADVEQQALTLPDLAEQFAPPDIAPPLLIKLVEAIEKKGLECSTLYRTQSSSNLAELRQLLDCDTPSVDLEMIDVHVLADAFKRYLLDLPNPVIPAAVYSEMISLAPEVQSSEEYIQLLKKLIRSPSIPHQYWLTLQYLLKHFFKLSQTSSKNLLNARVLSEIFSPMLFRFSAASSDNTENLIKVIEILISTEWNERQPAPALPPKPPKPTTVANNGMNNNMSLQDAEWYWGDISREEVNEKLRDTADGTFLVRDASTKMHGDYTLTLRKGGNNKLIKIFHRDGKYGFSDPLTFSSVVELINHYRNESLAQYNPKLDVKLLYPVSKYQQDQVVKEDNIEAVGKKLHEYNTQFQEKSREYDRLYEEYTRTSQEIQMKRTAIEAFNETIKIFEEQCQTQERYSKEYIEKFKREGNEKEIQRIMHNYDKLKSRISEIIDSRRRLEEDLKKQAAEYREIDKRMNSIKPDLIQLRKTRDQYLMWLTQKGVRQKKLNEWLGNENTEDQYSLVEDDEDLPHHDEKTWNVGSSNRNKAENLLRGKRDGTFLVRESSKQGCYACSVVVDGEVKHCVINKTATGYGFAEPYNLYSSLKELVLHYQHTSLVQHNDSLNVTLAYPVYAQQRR
pIC50: −log10 of the molar value.
// rule not met strictly below 7 in pIC50; rule met otherwise

molecule: C[C@H](Nc1ncnn2ccnc12)c1nc2cccc(Cl)c2c(=O)n1Cc1cc[nH]n1 [Compound 78]
target or test system: PI3Kβ (Homo sapiens (Human), UniProt P42338)
group label: rule not met
--
molecule: C[C@H](Nc1nc(N)nc(N)c1C#N)c1nc2c(Cl)cc(F)cc2c(=O)n1[C@H]1C[C@@H](O)C1 [Compound 99]
target or test system: PI3Kβ (Homo sapiens (Human), UniProt P42338)
group label: rule not met
--
molecule: CC(C)(C)C(=O)NCCCn1c([C@@H](Nc2nc(N)nc(N)c2C#N)C2CC2)nc2cccc(Cl)c2c1=O [Compound 52]
target or test system: PI3Kβ (Homo sapiens (Human), UniProt P42338)
group label: rule met
--
molecule: CC(CCN)n1c([C@H](C)Nc2ncnc(N)c2C#N)nc2cccc(Cl)c2c1=O (stereo partly shown) [Compound 24]
target or test system: PI3Kβ (Homo sapiens (Human), UniProt P42338)
group label: rule met
--
molecule: N#Cc1c(N)nc(N)nc1N[C@H](c1nc2cccc(Cl)c2c(=O)n1CCCCC(N)=O)C1CC1 [Compound 64]
target or test system: PI3Kβ (Homo sapiens (Human), UniProt P42338)
group label: rule met
--
molecule: CC[C@H](Nc1nc(N)nc(N)c1C#N)c1nc2cccc(Cl)c2c(=O)n1CCCC#N [Compound 115]
target or test system: PI3Kβ (Homo sapiens (Human), UniProt P42338)
group label: rule not met
--
molecule: C[C@H](Nc1nc(N)nc(N)c1C#N)c1nc2cccc(Cl)c2c(=O)n1Cc1ncc[nH]1 [Compound 80]
target or test system: PI3Kβ (Homo sapiens (Human), UniProt P42338)
group label: rule not met
--
molecule: C[C@H](Nc1ncnc(N)c1C#N)c1nc2cccc(Cl)c2c(=O)n1Cc1cc[nH]n1 [Compound 77]
target or test system: PI3Kβ (Homo sapiens (Human), UniProt P42338)
group label: rule not met
--
molecule: NC(=O)CCCCn1c([C@@H](Nc2nc(N)nc(N)c2Cl)C2CC2)nc2cccc(Cl)c2c1=O [Compound 59]
target or test system: PI3Kβ (Homo sapiens (Human), UniProt P42338)
group label: rule not met
--
molecule: C[C@H](Nc1ncnc(N)c1C#N)c1nc2cccc(Cl)c2c(=O)n1CC1CNCCO1 (stereo partly shown) [Compound 88]
target or test system: PI3Kβ (Homo sapiens (Human), UniProt P42338)
group label: rule not met
--
molecule: C[C@H](Nc1ncnc(N)c1C#N)c1nc2cccc(Cl)c2c(=O)n1CCCO [Compound 83]
target or test system: PI3Kβ (Homo sapiens (Human), UniProt P42338)
group label: rule not met
--
molecule: NCCCn1c([C@@H](Nc2nc(N)nc(N)c2Cl)C2CC2)nc2cccc(Cl)c2c1=O [Compound 38]
target or test system: PI3Kβ (Homo sapiens (Human), UniProt P42338)
group label: rule met
--
molecule: COCCCn1c([C@H](C)Nc2nc(N)nc(N)c2C#N)nc2c(F)ccc(F)c2c1=O [Compound 109]
target or test system: PI3Kβ (Homo sapiens (Human), UniProt P42338)
group label: rule not met
